Target: NAD-dependent protein deacetylase sirtuin-1 (Homo sapiens) (UniProt Q96EB6)
Sequence (Q96EB6 whole entry, the tested form may be a part): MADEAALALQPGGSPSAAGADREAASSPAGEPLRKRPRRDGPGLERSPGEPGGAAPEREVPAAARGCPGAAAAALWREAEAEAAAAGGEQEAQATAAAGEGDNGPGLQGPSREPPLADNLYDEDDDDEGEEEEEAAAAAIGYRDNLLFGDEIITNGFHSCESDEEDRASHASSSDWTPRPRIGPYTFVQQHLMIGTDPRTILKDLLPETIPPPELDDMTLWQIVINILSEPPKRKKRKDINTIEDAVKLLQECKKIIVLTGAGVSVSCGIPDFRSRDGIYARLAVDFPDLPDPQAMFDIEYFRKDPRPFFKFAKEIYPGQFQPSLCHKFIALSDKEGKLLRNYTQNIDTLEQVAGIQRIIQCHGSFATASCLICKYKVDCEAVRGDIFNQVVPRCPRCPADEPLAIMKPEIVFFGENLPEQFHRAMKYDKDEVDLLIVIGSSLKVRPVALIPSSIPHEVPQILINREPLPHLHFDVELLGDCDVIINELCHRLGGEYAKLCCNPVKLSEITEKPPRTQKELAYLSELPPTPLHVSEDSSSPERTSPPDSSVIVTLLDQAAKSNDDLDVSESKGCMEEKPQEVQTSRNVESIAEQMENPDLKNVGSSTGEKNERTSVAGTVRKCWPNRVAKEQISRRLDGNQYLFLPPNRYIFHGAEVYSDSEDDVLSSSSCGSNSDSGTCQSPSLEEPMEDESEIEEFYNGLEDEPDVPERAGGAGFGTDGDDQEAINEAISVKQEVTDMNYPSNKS
Test: Activity of human truncated SIRT1-GST fusion protein at 50 uM after 1 hr by trypsin developer-based fluorescence assay
The source made the active and inactive calls. The calls are words filed in the database; no cut-off is given here. Where a SMILES comes first, the peptide text is derived from it. The star is where a group is joined. AMC = Cc1cc(=O)oc2cc(N*)ccc12
reported.property: Activity

Example entries begin here.
{"columns": ["compound", "result.value"],
 "data": [
  ["CC(=O)NCCCC[C@H](NC(=O)CNC(=O)[C@H](CC(C)C)NC(C)=O)C(=O)Nc1ccc2c(C)cc(=O)oc2c1 (Ac-Leu-Gly-Lys(Ac)-{AMC})", "inactive"],
  ["CC(=O)NCCCC[C@H](NC(C)=O)C(=O)Nc1ccc2c(C)cc(=O)oc2c1", "inactive"],
  ["CC(=O)NCCCC[C@H](NC(=O)[C@H](CCCCNC(C)=O)NC(=O)[C@H](Cc1cnc[nH]1)NC(=O)[C@H](CCCNC(=N)N)NC(C)=O)C(=O)Nc1ccc2c(C)cc(=O)oc2c1 (Ac-RHK(Ac)K(Ac)-{AMC})", "inactive"],
  ["CC(=O)NCCCC[C@H](NC(=O)[C@H](CCCCN)NC(=O)[C@H](Cc1cnc[nH]1)NC(=O)[C@H](CCCNC(=N)N)NC(C)=O)C(=O)Nc1ccc2c(C)cc(=O)oc2c1 (Ac-RHKK(Ac)-{AMC})", "inactive"]
]}

Shift focus to the following entry.
In plain terms, CC(=O)NCCCC[C@H](NC(=O)[C@H](CCCCN)NC(=O)[C@@H]1CCCN1C(=O)[C@H](CCC(N)=O)NC(C)=O)C(=O)Nc1ccc2c(C)cc(=O)oc2c1 (Ac-QPKK(Ac)-{AMC}) has a documented Activity of inactive

----------
Molecular target: NAD-dependent protein deacetylase sirtuin-1 (Homo sapiens)
Test: Activity of human full length SIRT1 enzyme at 50 uM after 1 hr by trypsin developer-based fluorescence assay
Active and inactive are the calls of the source. No cut-off for these calls is given here. Where a SMILES comes first, the peptide text is derived from it. The star is where a group is joined. AMC = Cc1cc(=O)oc2cc(N*)ccc12
Field 'call' accepts active, inactive

As a guide, the following entries are already answered.
{"columns": ["compound", "study.system", "assigned.category"],
 "data": [
  ["CC(=O)NCCCC[C@H](NC(=O)[C@H](CCCCNC(C)=O)NC(=O)[C@H](Cc1cnc[nH]1)NC(=O)[C@H](CCCNC(=N)N)NC(C)=O)C(=O)Nc1ccc2c(C)cc(=O)oc2c1 (Ac-RHK(Ac)K(Ac)-{AMC})", "NAD-dependent protein deacetylase sirtuin-1 (Homo sapiens)", "inactive"],
  ["CC(=O)NCCCC[C@H](NC(C)=O)C(=O)Nc1ccc2c(C)cc(=O)oc2c1", "NAD-dependent protein deacetylase sirtuin-1 (Homo sapiens)", "inactive"],
  ["CC(=O)NCCCC[C@H](NC(=O)[C@H](CCCCN)NC(=O)[C@H](Cc1cnc[nH]1)NC(=O)[C@H](CCCNC(=N)N)NC(C)=O)C(=O)Nc1ccc2c(C)cc(=O)oc2c1 (Ac-RHKK(Ac)-{AMC})", "NAD-dependent protein deacetylase sirtuin-1 (Homo sapiens)", "inactive"]
]}

Record request — test call for CC(=O)NCCCC[C@H](NC(=O)[C@H](CCCNC(=N)N)NC(=O)[C@H](C)NC(=O)[C@@H](NC(C)=O)[C@H](C)O)C(=O)Nc1ccc2c(C)cc(=O)oc2c1
active

Record request — test call for CC(=O)NCCCC[C@H](NC(=O)CNC(=O)[C@H](CC(C)C)NC(C)=O)C(=O)Nc1ccc2c(C)cc(=O)oc2c1 (Ac-Leu-Gly-Lys(Ac)-{AMC})
inactive

Record request — test call for CC(=O)NCCCC[C@H](NC(=O)[C@H](CCCCN)NC(=O)[C@@H]1CCCN1C(=O)[C@H](CCC(N)=O)NC(C)=O)C(=O)Nc1ccc2c(C)cc(=O)oc2c1 (Ac-QPKK(Ac)-{AMC})
inactive
